Reported Z Score by item:
Molecular target: T1, P-cadherin-ECD1-3-Fc protein (human P-cadherin-Fc) (human, UniProt P22223 108-440)
T1 construct: Construct was expressed with signal peptide and pro-peptide (PACE co-transfected to process the propeptide); not shown: hinge and CH2 and CH3 domains of human IgG1
T1 sequence (P22223 108-440): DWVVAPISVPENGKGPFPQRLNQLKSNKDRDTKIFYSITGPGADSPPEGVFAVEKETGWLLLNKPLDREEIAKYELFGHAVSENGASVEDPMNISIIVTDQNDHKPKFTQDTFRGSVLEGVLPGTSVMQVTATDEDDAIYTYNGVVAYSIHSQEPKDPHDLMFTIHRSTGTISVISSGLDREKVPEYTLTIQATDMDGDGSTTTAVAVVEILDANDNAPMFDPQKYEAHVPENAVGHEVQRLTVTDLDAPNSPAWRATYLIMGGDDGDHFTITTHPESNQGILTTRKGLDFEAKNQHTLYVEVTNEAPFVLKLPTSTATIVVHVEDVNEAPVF
Assay: phage scFv ELISA, coated P-cadherin-ECD1-3-Fc
Just the number, please, no unit attached.

Some entries whose results are on file:
binder	Z Score
anti-P-cadherin scFv 153 alanine-mutant L1.8-Ala (scFv, V domains shown, scFv on phage) VH: EVQLVQSGAEVKKPGASVKVSCKASGYTFTSYGISWVRQAPGQGLEWMGWISAYNGNTNYAQKLQGRVTMTTDTSTSTAYMELRSLRSDDTAVYYCATIDTANAFGIWGQGTMVTVSS VL: QSVLTQPPSVSAAPGQKVTISCSGSSSNIANNYVSWYQQLPGTAPKLLIYDNNKRPSGIPDRFSGSKSGTSATLGITGLQTGDEADYYCGTWDSSLSGVVFGGGTKLTVL	-0.5
anti-P-cadherin scFv 153 alanine-mutant L1.2-Ala (scFv, V domains shown, scFv on phage) VH: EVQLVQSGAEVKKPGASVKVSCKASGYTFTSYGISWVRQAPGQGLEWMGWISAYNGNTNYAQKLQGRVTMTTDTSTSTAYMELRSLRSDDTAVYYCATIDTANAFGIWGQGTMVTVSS VL: QSVLTQPPSVSAAPGQKVTISCSASSSNIGNNYVSWYQQLPGTAPKLLIYDNNKRPSGIPDRFSGSKSGTSATLGITGLQTGDEADYYCGTWDSSLSGVVFGGGTKLTVL	-0.1
anti-P-cadherin scFv 153 alanine-mutant L1.7-Ala (scFv, V domains shown, scFv on phage) VH: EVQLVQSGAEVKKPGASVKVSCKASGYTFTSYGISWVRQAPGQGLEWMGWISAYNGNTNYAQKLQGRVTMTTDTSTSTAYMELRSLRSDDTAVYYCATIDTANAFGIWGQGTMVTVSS VL: QSVLTQPPSVSAAPGQKVTISCSGSSSNAGNNYVSWYQQLPGTAPKLLIYDNNKRPSGIPDRFSGSKSGTSATLGITGLQTGDEADYYCGTWDSSLSGVVFGGGTKLTVL	0.2

Please find the next binder below.
What measured Z Score goes with anti-P-cadherin scFv 153 alanine-mutant L3.6-Ala (scFv, V domains shown, scFv on phage) VH: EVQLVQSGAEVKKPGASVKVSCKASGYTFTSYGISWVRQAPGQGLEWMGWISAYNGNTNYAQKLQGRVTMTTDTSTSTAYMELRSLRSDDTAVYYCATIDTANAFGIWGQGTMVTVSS VL: QSVLTQPPSVSAAPGQKVTISCSGSSSNIGNNYVSWYQQLPGTAPKLLIYDNNKRPSGIPDRFSGSKSGTSATLGITGLQTGDEADYYCGTWDSALSGVVFGGGTKLTVL ?
1.5
